system-name: Streptavidin (Streptomyces avidinii) (UniProt P22629)
Sequence (P22629 whole entry, looked up): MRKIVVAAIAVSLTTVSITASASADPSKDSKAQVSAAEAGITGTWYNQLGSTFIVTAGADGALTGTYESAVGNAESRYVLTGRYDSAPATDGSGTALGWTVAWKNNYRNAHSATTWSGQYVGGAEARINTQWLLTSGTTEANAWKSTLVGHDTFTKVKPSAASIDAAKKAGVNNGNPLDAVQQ
run-description: compounds binding control protein streptavidin – biophysical, small-molecule microarray, 635/667 nm fluorescence, artefact control for SMM compound annotation, primary screen (AID 1147);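 also: signal reflects streptavidin binding to arrayed compounds as a control protein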
condition-label: higher = more signal
test-readout: composite z-score

- molecule: "CCOc1cc(C(O)C2C=CC3C(=O)NC(=O)C3N2Nc2ccccn2)ccc1O (centres undefined)"
  system-name: "Streptavidin (Streptomyces avidinii) (UniProt P22629)"
  test-readout: "composite z-score"
  recorded-number: 0.171
- molecule: "COCCOC(=O)N1C(=O)[C@@]2(c3cc(C#Cc4ccc(OC)cc4)ccc31)[C@H](C(N)=O)[C@H]1C(=O)O[C@H](c3ccccc3)[C@H](c3ccccc3)N1[C@@H]2c1ccc(OCCO)cc1"
  system-name: "Streptavidin (Streptomyces avidinii) (UniProt P22629)"
  test-readout: "composite z-score"
  recorded-number: 0.741
- molecule: "C=C[C@@H](O)[C@H]1CC(c2ccccc2)=NO1"
  system-name: "Streptavidin (Streptomyces avidinii) (UniProt P22629)"
  test-readout: "composite z-score"
  recorded-number: 0.174
- molecule: "COC(=O)[C@@]1(Cc2ccccc2)[C@H]2c3cc(C(=O)N4CCCC4)n(Cc4ccc(OC(F)(F)F)cc4)c3C[C@H]2CN1C(=O)c1ccccc1"
  system-name: "Streptavidin (Streptomyces avidinii) (UniProt P22629)"
  test-readout: "composite z-score"
  recorded-number: 1.64

Values from PubChem BioAssay
